System: CAOV3
Assay: Primary qHTS to identify gynecologic anti-cancer compounds using libraries of approved drugs and bioactive compounds (AID 1345084); also: nearly all actives have a fitted effect of over 55% in size; also: potency is read from the fitted curve at half-maximal effect
Conditions: Gynecologic cancer cell panel viability, ATPlite luminescence, 48 h; series mostly up to 57.5 µM
Results filed as inconclusive are left out. Calls of active or inactive are those of the source. Calls follow the shape of the dose curve; as a rule, active = well fitted cell-killing curve with a large enough effect; inconclusive = small, poorly fitted or top-dose-only effect, or effect the other way; inactive = flat fitted curve, though single readings scatter.
METRIC: Potency

                                   molecule  study_target            result
0  C=C1C(=O)OC2/C=C(\CO)CC/C=C(\C=O)C(O)C(OC(=O)C(C)CC)C12 (stereo unspecified)         CAOV3          inactive
1  C1=C/COCc2cc(ccc2OCCN2CCCC2)Nc2nccc(n2)-c2cccc(c2)COC/1         CAOV3  11.2 µM (active)
2  O[C@@](Cc1ncc(CC2(C(F)(F)F)CC2)[nH]1)(c1ccc(-n2cccn2)cc1)C(F)(F)F         CAOV3          inactive
3  Cc1nc(N2CCN(C(=O)c3ccco3)CC2)c2c3c(sc2n1)CCCC3         CAOV3          inactive
4  C=C(C(=O)O)[C@@H]1CC=C(CCC(C)=O)[C@@H](C)CC1         CAOV3          inactive
5  C=C(C)C1=C[C@@]2(C)C(=CC1=O)CC[C@@H](O)[C@@H]2C         CAOV3          inactive

====

Experiment: Primary fluorescence-based thiol-reactive (MSTI) qHTS assay for identification of artifact compounds. (AID 1845221); also: nearly all actives have a fitted effect of over 65% in size
Conditions: MSTI thiol-reactivity probe, 1 h; series mostly up to 53.8 µM
From the text: PI: Alexander Tropsha Ph.D. UNC Eshelman School of Pharmacy University of North Carolina, Chapel Hill, North Carolina Hits from high-throughput screening (HTS) of chemical libraries are often false positives due to their interference with the assay detection technology. […] Using these curated datasets, we developed and validated several Quantitative Structure-Interference Relationship (QSIR) models to predict nuisance behavior. […]
Records with an inconclusive call do not appear. The source made the active and inactive calls. Calls follow the shape of the dose curve; as a rule, active = well fitted inhibition curve with a large enough effect; inconclusive = small, poorly fitted or top-dose-only effect; inactive = no such curve, though single readings can be large or run the other way.
Outcomes: active, inactive

>>> df
                                    molecule  discrete_label
 0  COc1ccc(S(=O)(=O)N2CCC[C@H]2C(=O)Nc2cc(C)cc(C)c2)cc1        inactive
 1      CC(C)c1cc(-c2ccc(F)c3ccccc23)nc(N)n1        inactive
 2  Cc1ccc(-c2ncccn2)c(C(=O)N2C[C@H](COc3ccc(F)cn3)CC[C@H]2C)c1        inactive
 3  CN(C)C(=O)C(=O)c1cn(C)c2cc(Cl)c(C(=O)N3CCC(Cc4ccc(F)cc4)CC3)cc12        inactive
 4  CNC(=O)[C@@H](c1ccccc1)N1CCc2cc(OC)c(OC)cc2[C@@H]1CCc1ccc(C(F)(F)F)cc1        inactive
 5  C=CCc1ccc(OC(C)Cc2ccc(OC)c(OC)c2)c(OC)c1 (stereo unspecified)        inactive
 6  C=C1C(=O)OC2C3=C(C)C(=O)CC3C(C)CC(O)C12 (stereo unspecified)          active
 7  O=C(OC1CN2CCC1CC2)N1CCc2ccccc2C1c1ccccc1 (stereo unspecified)        inactive
 8  COC(=O)c1cc2c(C(F)(F)F)cc(-c3ccccc3)cc2n1O          active
 9  C=C1[C@H]2CC[C@H](C(=O)O)[C@@]23CC[C@H](C3)C1(C)C        inactive
10  Cc1cc(-c2cnc(N)c3c(-c4ccc5scnc5c4)csc23)n(C)n1        inactive

====

Assay: P-glycoprotein substrates identified in KB-8-5-11 adenocarcinoma cell line, qHTS therapeutic library screen (AID 1346987); also: nearly all actives have a fitted effect of over 65% in size
Conditions: KB-8-5-11 (P-gp overexpressing) viability, CellTiter-Glo, 72 h; series mostly up to 44.5 µM
Results filed as inconclusive are left out. Activity calls are given as the source filed them. The call rests on the fitted dose curve; in most records, active means well fitted inhibition curve with a large enough effect; inconclusive means small, poorly fitted or top-dose-only effect; inactive means flat fitted curve, though single readings scatter.
Possible outcomes: y for active, n for inactive

COMPOUND	DISCRETE_LABEL
C[C@@H]1O[C@@H](O[C@H]2[C@H](OC(=O)[C@]34CCC(C)(C)C[C@H]3C3=CCC5[C@@]6(C)C[C@H](O)[C@H](O[C@@H]7O[C@H](CO)[C@@H](O)[C@H](O)[C@H]7O)[C@](CO)(C(=O)O)C6CC[C@@]5(C)[C@]3(C)C[C@H]4O)OC[C@H](O)[C@@H]2O)[C@H](O)[C@H](O)[C@H]1O[C@@H]1OC[C@@H](O)[C@H](O[C@@H]2OC[C@](O)(CO)[C@H]2O)[C@H]1O (some centres undefined)	y
CC(CN(C)C)CN1c2ccccc2S(=O)(=O)c2ccccc21 (centres undefined)	n
Cc1cn2cc(C(=O)N(C)CCO)cc(NC3CCOc4cccc(C)c43)c2n1 (centres undefined)	n
CCCCCCCC/C=C\CCCCCCCC(=O)OC[C@@H](O)[C@H]1OC[C@H](O)[C@H]1O	n
C=C1[C@H]2CC[C@H](C(=O)O)[C@@]23CC[C@H](C3)C1(C)C	n
O=C(NCc1ccc(OC(F)(F)F)cc1)C1c2c(F)cccc2C(=O)N1CCc1ccccn1 (centres undefined)	n
CC1(C)C2CC[C@]3(C)[C@H](C(=O)C=C4[C@@H]5C[C@@](C)(C(=O)O)CC[C@]5(C)CC[C@]43C)[C@@]2(C)CC[C@@H]1O[C@H]1O[C@H](C(=O)O)[C@@H](O)[C@H](O)[C@H]1O[C@@H]1O[C@H](C(=O)O)[C@@H](O)[C@H](O)[C@H]1O (some centres undefined)	n
COc1c(C)cnc(Cn2cc(C#CCC(C)(C)O)c3c(Cl)nc(N)nc32)c1C	y
Cn1c(SCC(=O)N2CCC[C@H]2C(=O)Nc2ccccc2-c2ccccc2)nc2ccccc21	n
C[C@@H](O[C@H]1OCCN(Cc2nn(P(=O)(O)O)c(=O)[nH]2)[C@H]1c1ccc(F)cc1)c1cc(C(F)(F)F)cc(C(F)(F)F)c1	n
C/C=C/C=C/c1cc2c(C=O)c(O)c(CC=C(C)C)cc2o1	n
C=C1C(=O)O[C@@H]2/C=C(/C)[C@@H](OC(C)=O)C/C=C(\C)C[C@@H](OC(=O)/C(=C/CO)CO)[C@@H]12	n
CCCCCCCCn1cc(CN(CC)CC)c2cc(-c3cnc(N)nc3)ccc21	y
COc1cc2nc(N3CCN(C(=O)c4ccco4)C4CCCCC43)nc(N)c2cc1OC (centres undefined)	y
CC1(C)CCCC2(C)C1C(=O)C=C(C(=O)O)C2(O)C(=O)O (centres undefined)	n
C[C@H]1C[C@@H]2[C@H]([C@@H](O)C[C@@]3(C)[C@H]2CC[C@]3(O)C(=O)COC(=O)CCC(=O)O)[C@@]2(C)C=CC(=O)C=C12	n
CC(C)n1nc(C#Cc2ccccc2)c2c(N)ncnc21	y
CC(C)(O)C1CC(=O)C2(C)C(CCC3(C)C(c4ccoc4)OC(=O)C4OC432)C12CCC(=O)OC2 (centres undefined)	n
C=CCNC1=C2C[C@@H](C)C[C@H](OC)[C@H](O)[C@@H](C)/C=C(\C)[C@H](OC(N)=O)[C@@H](OC)/C=C\C=C(/C)C(=O)NC(=CC1=O)C2=O	y
NCCCNCCCCNC(=O)C(O)NC(=O)CCCCCCN=C(N)N (centres undefined)	n
CN(C)CC1CCn2c(c(C3=C(c4cn(C)c5ccccc45)C(=O)NC3=O)c3ccccc32)C1 (centres undefined)	y
CC1(C=O)CCCC2(C)C1CCC13CC(CO)C(CCC12)C3 (centres undefined)	n
CCCCCCCCC(=O)N[C@H](CN1CCCC1)[C@H](O)c1ccc2c(c1)OCCO2	y
O=C(c1c(F)ccc(NS(=O)(=O)N2CC[C@@H](F)C2)c1F)c1c[nH]c2ncc(-c3cnc(C4CC4)nc3)cc12	n

====

Tested on: NIH3T3
Experiment: Cytotoxic Profiling of Annotated Libraries Using Quantitative High-Throughput Screening (AID 1296008); also: % is scaled to controls: 0 for no effect and ±100 for the full control effect; nearly all actives have a fitted effect of over 60% in size
Conditions: Five cell lines viability, CellTiter-Glo ATP luminescence, 48-72 h; stronger effect = lower value
Records with an inconclusive call do not appear.
METRIC: max response (%)

>>> df
                                    molecule  units_text  numeric_result
 0  CC(F)(F)CN1CCOc2c(nn(-c3ccccc3Cl)c2-c2ccc(Cl)cc2)C1=O           %           -14.8
 1  CCCSc1nc(N[C@@H]2C[C@H]2c2ccc(F)c(F)c2)c2nnn([C@@H]3C[C@H](OCCO)[C@@H](O)[C@H]3O)c2n1           %           -24.3
 2     CN(C)C(=O)Nc1cccc(-c2ccc(N(C)C)cc2)c1           %               3
 3  O=C1COC2(CCN(S(=O)(=O)c3ccc(-c4ccc5cccnc5c4)cc3)CC2)CN1C1CC1           %           -10.8
 4  COc1cc(/C=N\NC(=O)c2ccc3c(c2)OCO3)ccc1OCc1ccccc1           %           0.687
 5  Cc1ccnn1-c1ccc(C(=O)N2CCN(S(=O)(=O)c3ccc(Cl)c(C(F)(F)F)c3)CC2)cc1           %           -5.12
 6  CC(C)(CO)c1cc2cc(NC(=O)C3(c4ccc5c(c4)OC(F)(F)O5)CC3)c(F)cc2n1CC(O)CO (stereo not drawn)           %           -6.55
 7  COC1CCN(C(=O)c2cc(Cc3n[nH]c(=O)c4ccccc34)ccc2F)CC1           %           -21.2
 8  O=C(NCCN1CCN(c2cccc3ccc(O)cc23)CC1)c1ccc(F)cc1           %            3.66
 9   CC1(NC(=O)c2ccc(C#Cc3cccc(F)c3)cn2)COC1           %           -3.45
10         COc1cc(C(C)C)c(Oc2cnc(N)nc2N)cc1I           %           -1.33
11  CCCOc1ccc(S(=O)(=O)N2CCN(CCO)CC2)cc1-c1nc2c(CCC)cn(CC)c2c(=O)[nH]1           %            4.33
12  COc1cc2c(cc1O)C1(Cc3ccc4c(c3C1O)OCO4)[N+](C)([O-])CC2 (stereo not drawn)           %           -2.31
